Reference source: the Human Domainome abundance scans (Beltran et al. 2025)

Provide the recorded abundance fitness for the entries that follow.
B1: Cold shock protein CspB, residues 1 to 66; numbered along this chain, P41016 (parent)
chain: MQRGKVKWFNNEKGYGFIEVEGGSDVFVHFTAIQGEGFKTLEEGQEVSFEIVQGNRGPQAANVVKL

Variants of: B1
testProtocol: abundance fitness (aPCA) (normalised: wild type 0, dead -1); higher = more abundant; growth selection in yeast, the domain comes from the species named
assayContext: Bacillus caldolyticus

Need abundance fitness of Q34T , thanks.
-0.008

Need abundance fitness of T31V , thanks.
-0.345

Need abundance fitness of F38W , thanks.
0.024

Need abundance fitness of K5W , thanks.
-0.052

Need abundance fitness of E12F , thanks.
0.006

Need abundance fitness of K13S , thanks.
-0.044

Need abundance fitness of E42V , thanks.
-0.008

Need abundance fitness of E21A , thanks.
0.017

Need abundance fitness of G16I , thanks.
-0.911

Need abundance fitness of F9T , thanks.
-0.306

Need abundance fitness of K7P , thanks.
-0.817

Need abundance fitness of S24P , thanks.
0.012

Need abundance fitness of N11A , thanks.
-0.052

Need abundance fitness of F9V , thanks.
-0.239

Need abundance fitness of V26K , thanks.
-0.251

Need abundance fitness of A32R , thanks.
-0.084

Need abundance fitness of F17A , thanks.
-0.159

Need abundance fitness of G14Y , thanks.
-0.445

Need abundance fitness of G22S , thanks.
0.011

Need abundance fitness of V28F , thanks.
-0.062

Need abundance fitness of E42Q , thanks.
0.043

Need abundance fitness of E36F , thanks.
-0.023

Need abundance fitness of E42M , thanks.
-0.006

Need abundance fitness of E43Y , thanks.
-0.017

Need abundance fitness of G44T , thanks.
-0.093
